assay: M. tuberculosis growth inhibition, HTS (AID 449762);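 note: bacterial growth assessed after seven days of incubation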; details: M. tuberculosis H37Rv growth inhibition, 7H9 media; at 25 µM; stronger effect = higher value
Out of some 330,000 compounds screened, about 1,900 (0.58%) were called active. Inconclusive results (about 4%) are left out. Only a sample is shown. Results with a measured potency or affinity are listed apart.
Reported inhibition values follow for various compounds
Write the number in % without appending the unit.

Inquiry: Suppose we examine the compound "O=C(COc1ccccc1F)Nc1ccc(S(=O)(=O)Nc2nccs2)cc1" ; what inhibition value has been reported?
Reply text: 3.76

Inquiry: Also "O=C(COC(=O)c1cc2ccccc2cc1O)Nc1cccnc1Cl" ?
Reply text: -17

---

experiment: M. tuberculosis growth inhibition, HTS (AID 449762);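 note: bacterial growth assessed after seven days of incubation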; details: M. tuberculosis H37Rv growth inhibition, 7H9 media; at 25 µM; stronger effect = higher value
In all, about 330,000 compounds went through this assay and about 1,900 (0.58%) were called active. Inconclusive results (about 4%) are left out. A selection follows. Results with a measured potency or affinity are listed apart.
REPORTED ENDPOINT: inhibition (%)
Write the number in % without appending the unit.

[
  {
    "COMPOUND": "COc1ccccc1N1CCN(CC(=O)Nc2nc(C)c(C(=O)N(C)C)s2)CC1",
    "UNIT ABBREV": "%",
    "inhibition": 0.78
  },
  {
    "COMPOUND": "CCCOc1ccc(N2CC(C(=O)Nc3ccccc3C(=O)NC)CC2=O)cc1 (stereo not given)",
    "UNIT ABBREV": "%",
    "inhibition": -2.1
  }
]

Inquiry: Suppose we examine the compound C/C=C(/C)C(=O)Nc1cccc(C2=NOC3(C2)C[C@H](C(N)=O)N(C(=O)c2ccccc2)C3)c1 (stereo not given in full) ; what inhibition value has been reported?
Reply text: -2.03

Inquiry: Also "Cc1noc(C)c1CSCC(=O)N(CC(C)C)c1c(N)n(Cc2ccccc2)c(=O)[nH]c1=O" ?
Reply text: -5.68

Inquiry: Also "CCc1nc2c(c(=O)c3ccccc3n2C)c(=O)n1C1CCCCCC1" ?
Reply text: 6.04

Inquiry: Also "CN1C2CCC1/C(=C\c1ccccc1F)C(=O)/C2=C/c1ccccc1F" ?
Reply text: 5.25

Inquiry: Also "C=CCn1c(O)c(N=Nc2ccccc2)c2ccccc21" ?
Reply text: 19.4

---

assay: M. tuberculosis growth inhibition, HTS (AID 449762);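 note: bacterial growth assessed after seven days of incubation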; conditions: M. tuberculosis H37Rv growth inhibition, 7H9 media; at 25 µM; stronger effect = higher value
Among all 330,000 compounds or so, about 1,900 (0.58%) were called active. About 4% were inconclusive and are not listed. The list is a sample of the results. Potency and affinity values are given separately.
REPORTED ENDPOINT: inhibition (%)
Write the number in % without appending the unit.

Would you please look over these solved cases?
[
  {
    "MOLECULE": "CC(C)OC(=O)CSc1nc(N2CCOCC2)c2c(c1C#N)CC(C)(C)OC2",
    "REPORTED ENDPOINT": "inhibition",
    "RECORDED RESULT": 35.4
  },
  {
    "MOLECULE": "CN1CCN(c2nc(-c3ccco3)cc(C(F)(F)F)n2)CC1",
    "REPORTED ENDPOINT": "inhibition",
    "RECORDED RESULT": 7.69
  },
  {
    "MOLECULE": "CCOC(=O)C1=C(C)Nc2nc(C)nn2C1c1ccc(C)cc1 (stereo unspecified)",
    "REPORTED ENDPOINT": "inhibition",
    "RECORDED RESULT": 5.22
  },
  {
    "MOLECULE": "COc1ccc(Cl)cc1NC(=O)CN1CCCCCC1",
    "REPORTED ENDPOINT": "inhibition",
    "RECORDED RESULT": -5.19
  },
  {
    "MOLECULE": "Cc1cc(S(=O)(=O)Nc2ccc3cn[nH]c3c2)c(C)cc1Cl",
    "REPORTED ENDPOINT": "inhibition",
    "RECORDED RESULT": -3.66
  },
  {
    "MOLECULE": "COC(=O)CSc1nc(N2CCOCC2)c2c(c1C#N)CC(C)(C)OC2",
    "REPORTED ENDPOINT": "inhibition",
    "RECORDED RESULT": 4.99
  },
  {
    "MOLECULE": "O=S(=O)(c1cccc(-c2cn3ccccc3n2)c1)N1CCCCC1",
    "REPORTED ENDPOINT": "inhibition",
    "RECORDED RESULT": 0.63
  },
  {
    "MOLECULE": "c1ccc2nc3c(nc2c1)OCC1CCCCN31 (stereo unspecified)",
    "REPORTED ENDPOINT": "inhibition",
    "RECORDED RESULT": 3.14
  }
]

Inquiry: Suppose we examine the molecule "O=[N+]([O-])c1cnn(-c2nc(-c3ccco3)cc(C(F)(F)F)n2)c1" ; what inhibition value has been reported?
Reply text: -2.2

Inquiry: Also "O=C(Nc1ccc2[nH]ncc2c1)c1ccccc1Cl" ?
Reply text: -3.21

Inquiry: Also "CCCN(CCC)C(=O)c1ccc2nc(-c3ccc(OC)c(OC)c3)c(-c3ccc(OC)c(OC)c3)nc2c1" ?
Reply text: -2.59

Attribution: PubChem BioAssay AID449762
